// data source = ChEMBL document CHEMBL5154747

Test system: CAKI-1
method_notes: Anticancer activity against human CAKI-1 cells assessed as cell growth inhibition at 10 uM incubated for 48 hrs by SRB assay relative to control
Type: functional
condition_label: read-out: GI
Use 40% as the dividing line for inhibition of growth at 10 µM, with the line itself on the yes (1) side and lower values as no (0).

{"columns": ["mol", "target_entity", "category"],
 "data": [
  ["NS(=O)(=O)c1ccc(Nc2nc(N/N=C/CCc3ccccc3)nc(Nc3ccccc3)n2)cc1", "CAKI-1", "no (0)"],
  ["NS(=O)(=O)c1ccc(Nc2nc(N/N=C/c3ccccn3)nc(Nc3ccccc3)n2)cc1", "CAKI-1", "yes (1)"],
  ["NS(=O)(=O)c1ccc(Nc2nc(N/N=C/c3ccccc3)nc(Nc3ccccc3)n2)cc1", "CAKI-1", "no (0)"],
  ["NS(=O)(=O)c1ccc(Nc2nc(N/N=C/c3cccc4ccccc34)nc(Nc3ccccc3)n2)cc1", "CAKI-1", "no (0)"],
  ["NS(=O)(=O)c1ccc(Nc2nc(N/N=C/c3ccc(Cl)cc3)nc(Nc3ccccc3)n2)cc1", "CAKI-1", "no (0)"],
  ["COc1ccc(/C=N/Nc2nc(Nc3ccccc3)nc(Nc3ccc(S(N)(=O)=O)cc3)n2)cc1", "CAKI-1", "no (0)"],
  ["NS(=O)(=O)c1ccc(Nc2nc(N/N=C/c3ccc([N+](=O)[O-])cc3)nc(Nc3ccccc3)n2)cc1", "CAKI-1", "yes (1)"],
  ["NS(=O)(=O)c1ccc(Nc2nc(N/N=C/c3ccc4c(c3)OCO4)nc(Nc3ccccc3)n2)cc1", "CAKI-1", "yes (1)"],
  ["Cc1nn(-c2ccccc2)cc1/C=N/Nc1nc(Nc2ccccc2)nc(Nc2ccc(S(N)(=O)=O)cc2)n1", "CAKI-1", "yes (1)"],
  ["NS(=O)(=O)c1ccc(Nc2nc(N/N=C/c3ccc(C(F)(F)F)cc3)nc(Nc3ccccc3)n2)cc1", "CAKI-1", "yes (1)"],
  ["NNc1nc(Nc2ccccc2)nc(Nc2ccc(S(N)(=O)=O)cc2)n1", "CAKI-1", "no (0)"],
  ["CN(C)c1ccc(/C=N/Nc2nc(Nc3ccccc3)nc(Nc3ccc(S(N)(=O)=O)cc3)n2)cc1", "CAKI-1", "no (0)"]
]}

----------
Test system: A549
method_notes: Anticancer activity against human A549 cells assessed as cell growth inhibition incubated for 48 hrs by SRB assay
Type: functional

{"columns": ["mol", "target_entity", "GI50, nM"],
 "data": [
  ["O=c1[nH]cc(F)c(=O)[nH]1", "A549", 180],
  ["Cc1nn(-c2ccccc2)cc1/C=N/Nc1nc(Nc2ccccc2)nc(Nc2ccc(S(N)(=O)=O)cc2)n1", "A549", 1850],
  ["NS(=O)(=O)c1ccc(Nc2nc(N/N=C/c3ccccn3)nc(Nc3ccccc3)n2)cc1", "A549", 2290],
  ["NS(=O)(=O)c1ccc(Nc2nc(N/N=C/c3ccc(C(F)(F)F)cc3)nc(Nc3ccccc3)n2)cc1", "A549", 3110]
]}

----------
Tested on: SN12C
method_notes: Anticancer activity against human SN12C cells assessed as cell growth inhibition incubated for 48 hrs by SRB assay
Assay type: functional
Entries annotated with measured GI50

{"columns": ["molecule", "GI50"],
 "data": [
  ["O=c1[nH]cc(F)c(=O)[nH]1 [FLUOROURACIL]", "0.49 µM"],
  ["NS(=O)(=O)c1ccc(Nc2nc(N/N=C/c3ccc(C(F)(F)F)cc3)nc(Nc3ccccc3)n2)cc1", "3 µM"],
  ["Cc1nn(-c2ccccc2)cc1/C=N/Nc1nc(Nc2ccccc2)nc(Nc2ccc(S(N)(=O)=O)cc2)n1", "2.94 µM"],
  ["NS(=O)(=O)c1ccc(Nc2nc(N/N=C/c3ccccn3)nc(Nc3ccccc3)n2)cc1", "1.01 µM"]
]}
